# TARGET SYSTEM: BaF3 KIF5B-RET_G810R (Homo sapiens, UniProt P07949, G810R, cells depend on it)
# Construct: fused on or other part: P33176 (Kinesin-1 heavy chain)
# Sequence (P07949 whole entry G810R, the tested form may be a part): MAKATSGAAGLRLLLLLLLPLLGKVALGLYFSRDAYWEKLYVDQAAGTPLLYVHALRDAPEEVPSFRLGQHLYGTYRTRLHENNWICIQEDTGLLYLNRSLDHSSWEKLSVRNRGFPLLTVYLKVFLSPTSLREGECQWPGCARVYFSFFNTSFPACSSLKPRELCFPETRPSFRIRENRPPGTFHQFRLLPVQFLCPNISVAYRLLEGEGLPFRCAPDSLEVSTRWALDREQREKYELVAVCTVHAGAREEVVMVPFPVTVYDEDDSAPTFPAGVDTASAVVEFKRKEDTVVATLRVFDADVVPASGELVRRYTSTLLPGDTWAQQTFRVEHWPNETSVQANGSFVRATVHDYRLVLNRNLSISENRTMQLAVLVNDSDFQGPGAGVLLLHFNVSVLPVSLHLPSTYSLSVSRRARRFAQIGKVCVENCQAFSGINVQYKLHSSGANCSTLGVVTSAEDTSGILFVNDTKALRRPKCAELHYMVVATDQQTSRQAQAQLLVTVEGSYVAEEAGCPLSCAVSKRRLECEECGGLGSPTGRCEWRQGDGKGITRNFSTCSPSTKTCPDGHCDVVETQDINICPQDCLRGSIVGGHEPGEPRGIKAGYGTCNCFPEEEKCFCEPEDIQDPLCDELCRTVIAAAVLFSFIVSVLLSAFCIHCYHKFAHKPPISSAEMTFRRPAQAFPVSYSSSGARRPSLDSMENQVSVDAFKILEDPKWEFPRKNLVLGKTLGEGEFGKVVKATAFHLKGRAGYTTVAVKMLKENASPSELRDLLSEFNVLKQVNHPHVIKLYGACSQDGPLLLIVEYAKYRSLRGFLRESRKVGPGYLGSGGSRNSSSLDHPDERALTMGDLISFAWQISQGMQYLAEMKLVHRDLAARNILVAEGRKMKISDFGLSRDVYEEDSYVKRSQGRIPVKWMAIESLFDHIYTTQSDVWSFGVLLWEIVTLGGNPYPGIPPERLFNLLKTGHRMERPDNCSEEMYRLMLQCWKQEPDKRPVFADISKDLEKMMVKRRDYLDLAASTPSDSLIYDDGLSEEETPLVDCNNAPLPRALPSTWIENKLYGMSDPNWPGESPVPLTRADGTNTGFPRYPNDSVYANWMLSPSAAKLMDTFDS
# EXPERIMENT SUMMARY: Cell proliferation assay (CellTiter-Glo, 72 hours)
# Format: cell-based
# RECORDED CONDITIONS: anti-cell proliferation, read-out: BaF3 KIF5B-RET_G810R IC50
// GI50 lookup, one value per entry
// return numeric value only (unit: µM, not printed)

Past entries and their recorded results:
SUBSTANCE SMILES: O=C1N[C@H](C(F)F)COc2ncc(F)cc2CN2c3nc4c1cnn4cc3O[C@H]1CCC[C@H]12
GI50 (µM): 0.0036
//
SUBSTANCE SMILES: C[C@H]1CNC(=O)c2cnn3cc4c(nc23)N(Cc2cc(F)cnc2O1)[C@@H]1COC[C@@H]1O4
GI50 (µM): 1.86
//
SUBSTANCE SMILES: C[C@H]1CNC(=O)c2cnn3cc4c(nc23)N(Cc2cc(F)cnc2OC1)[C@@H]1CCC[C@@H]1O4
GI50 (µM): 0.0107
//
SUBSTANCE SMILES: O=C1N[C@H](C2CC2)COc2ncc(F)cc2CN2c3nc4c1cnn4cc3O[C@H]1CCC[C@H]12
GI50 (µM): 0.53
//
SUBSTANCE SMILES: O=C1NC2(CCC2)CCOc2ncc(F)cc2CN2c3nc4c1cnn4cc3O[C@H]1CCC[C@H]12
GI50 (µM): 1.71

--- query ---
[Q] API: value(readout=GI50, system=BaF3 KIF5B-RET_G810R (Homo sapiens, UniProt P07949, G810R, cells depend on it)) for record "O=C1NCC2(CC2)COc2ncc(F)cc2CN2c3nc4c1cnn4cc3O[C@H]1CCC[C@H]12"
[A] 0.0078
